- System: P. falciparum 3D7 parasites
- PROTOCOL_SUMMARY: P. falciparum growth inhibition assay, 2-cycle (120 h treatment), delayed-death screen and dose-response
- Format: cell-based, Plasmodium falciparum
- DETAILS: Plasmodium falciparum, 3D7; P. falciparum, 120 h, screen at 2 μg/mL, replicate 2; read-out: Pf_120h_%Growth_Rep2
MEASURE_NAME: activity at 2 µg/mL
Could you kindly put the unit after your number?

Here are 3 molecules together with their reported answers.
Q) Find the measured activity at 2 µg/mL: item COC(=O)[C@]1(Cc2ccc3c(c2)C[C@H](O)C(C)(C)O3)OC(=O)C(O)=C1c1ccc(O)cc1 [Butyrolactone V] , target or system P. falciparum 3D7 parasites.
A) 94.5%

Q) Cool, now CC(=O)c1c(O)c(C)c(O)c2c1OC1=CC(=O)C(C(C)=O)C(=O)C12C (stereo not shown) [Usnic acid]
A) 102%

Q) Then this molecule: C[C@H]1[C@H](C)CC[C@]2(C(=O)O)CC[C@]3(C)C(=CC[C@@H]4[C@@]5(C)CC[C@H](O)C(C)(C)[C@@H]5CC[C@]43C)[C@H]12 [Ursolic acid]
A) 79.7%

---
Q) Request: activity at 2 µg/mL, test system P. falciparum 3D7 parasites, entry CC[C@H]1OC(=O)[C@H](C)C(=O)[C@H](C)[C@@H](O[C@@H]2O[C@H](C)C[C@H](N(C)C)[C@H]2O)[C@](C)(OC)C[C@@H](C)C(=O)[C@H](C)[C@H]2N(CCCCn3cnc(-c4cccnc4)c3)C(=O)O[C@]12C [Telithromycin]
A) 9.42%

Q) # iterate: COc1c(OC/C=C(\C)CCC=C(C)C)ccc2ccc(=O)oc12 [Collinin]
A) 78%

Q) Now consider CC1(C)C=Cc2cc3ccc(=O)oc3cc2O1 [Xanthyletin] and answer again.
A) 81.1%

Q) Queued: CO[C@H]1C[C@@H]2CC[C@@H](C)[C@@](O)(O2)C(=O)C(=O)N2CCCC[C@H]2C(=O)O[C@H]([C@H](C)C[C@@H]2CC[C@@H](OC(=O)C(C)(CO)CO)[C@H](OC)C2)CC(=O)[C@H](C)/C=C(\C)[C@@H](O)[C@@H](OC)C(=O)[C@H](C)C[C@H](C)/C=C/C=C/C=C/1C [Temsirolimus]
A) 46.5%

Q) // repeat for COc1ccc2c3c4n(c2c1)[C@H](C=C(C)C)OOC(C)(C)C[C@@H]4N1C(=O)[C@@H]2CCCN2C(=O)[C@]1(O)[C@H]3O [Verruculogen] and report
A) 80.6%

Q) O=C(O)/C=C/c1ccccc1 [Cinnamic acid] , same question.
A) 102%

Q) // query: CCC[C@H]1CC2=C(C[C@@H](CC)CC3=C1C(=O)OC3=O)C(=O)OC2=O [Byssochlamic acid]
A) 88.1%

====

- Tested on: T. gondii RH strain (RH-Tub-eYFP) tachyzoites
- PROTOCOL_SUMMARY: microbe, parasite or virus in culture
- Assay type: cell-based, Toxoplasma gondii
- DETAILS: T. gondii, 72 h, parasite screen at 2 μg/mL, % growth, replicate 1
MEASURE_NAME: Tg_72h_%Growth_Rep1 (%)
# value in %; strip the unit string

A selection of reference data follows.
Q) Find the measured Tg_72h_%Growth_Rep1: item CO[C@@H]1[C@@H](OC(N)=O)[C@@H](O)[C@H](Oc2ccc3c(O)c(NC(=O)c4ccc(O)c(CC=C(C)C)c4)c(=O)oc3c2C)OC1(C)C , target or system T. gondii RH strain (RH-Tub-eYFP) tachyzoites.
A) 9.17

Q) Same read-out for COc1cccc2oc3c4c(cc(OC)c3c(=O)c12)O[C@H]1OC=C[C@@H]41 ?
A) 111.85

Q) Moving on to COc1cc(O)c2c(c1)/C=C/C[C@H](O)[C@H](O)C(=O)/C=C/C[C@H](C)OC2=O
A) 58.83

Q) Further, for C[C@@H]1Cc2ccc(C(=O)N[C@@H](Cc3ccccc3)C(=O)O)c(O)c2C(=O)O1 ?
A) 126.36

Q) Another molecule to check: CC(=O)OCC12CC(O)C(C)=CC1OC1C(O)C(OC(C)=O)C2(C)C12CO2 (centres unmarked)
A) 0.58

Below: the item to evaluate.
Q) Form entry - test system: T. gondii RH strain (RH-Tub-eYFP) tachyzoites; read-out: Tg_72h_%Growth_Rep1; molecule: CCC1C=C(C)CC(C)CC(OC)C2OC(O)(C(=O)C(=O)N3CCCCC3C(=O)OC(C(C)=CC3CCC(Cl)C(OC)C3)C(C)C(O)CC1=O)C(C)CC2OC (centres unmarked)
A) 65.99

====

- Tested on: T. gondii RH strain (RH-Tub-eYFP) tachyzoites
- PROTOCOL_SUMMARY: microbe, parasite or virus in culture
- Type: cell-based, Toxoplasma gondii
- DETAILS: T. gondii, 72 h, 2 μg/mL; values are growth (% of control)
MEASURE_NAME: Replicate 2

Q) Could you share which Replicate 2 value was measured for COc1cc2c(oc(=O)c3cc(C)cc(OC)c32)c2c([C@@H]3O[C@H](C)[C@H](O)[C@@](C)(O)[C@H]3O)ccc(O)c12 [Chrysomycin B] ?
A) 17.10

Q) Same lookup for CCCC(=O)O[C@H]1[C@H](C)O[C@@H](O[C@H]2[C@H](N(C)C)[C@@H](O)[C@H](O[C@H]3[C@@H](CC=O)C[C@@H](C)[C@@H](O)/C=C/C=C/C[C@@H](C)OC(=O)C[C@@H](OC(C)=O)[C@@H]3OC)O[C@@H]2C)C[C@@]1(C)O [Leucomycin A4] , please.
A) 27.43

Q) What about this compound? CC[C@H]1CCC[C@H](O)[C@@H](C)C(=O)C2=C[C@@H]3[C@@H](C=C[C@@H]4C[C@@H](O[C@@H]5O[C@@H](C)[C@H](OC)[C@@H](OC)[C@H]5OC)C[C@@H]34)[C@@H]2CC(=O)O1 [Spinosyn A pseudoaglycone]
A) 9.69

More entries:
Q) Which Replicate 2 is reported for this compound? CN1CC[C@]2(c3cccc4c3N[C@H]3N(C)CC[C@@]43[C@]34CCN(C)[C@H]3Nc3ccccc34)c3ccccc3N[C@H]12 [Hodgkinsine B]
A) 59.70

Q) Another compound: COC(=O)c1ccc(CCCCCCCCCCc2ccc(C(=O)OC)nc2)cn1 [Penicolinate A]
A) 73.01

====

- Test system: T. gondii RH strain (RH-Tub-eYFP) tachyzoites
- PROTOCOL_SUMMARY: microbe, parasite or virus in culture
- Assay type: cell-based, Toxoplasma gondii
- DETAILS: library screen at 2 μg/mL, 72 h, % growth, replicate 2
Listed molecules paired with reported Tg_72h_%Growth_Rep2
Give the value, in units of %, as a plain number.

Q) Param item = CC(=O)OC[C@]12[C@H](O)C(=O)C(C)=C[C@H]1O[C@@H]1[C@H](O)C[C@@]2(C)[C@]12CO2 ; retrieve measured Tg_72h_%Growth_Rep2.
A) -0.58

Q) And the next one, CC(=O)[C@H]1c2c(c(O)c3c(O)cccc3c2-c2c3c(c(O)c4c(O)cccc24)C(=O)C[C@](C)(O)[C@H]3C(C)=O)C(=O)C[C@]1(C)O [A 39183A] ?
A) 100.22

Q) Would you mind doing C=C1C(=O)O[C@H]2C(=O)O[C@H](CCCCCCCC)[C@@H]12 [Avenaciolide] as well?
A) 95.83

Q) Same again, this time with C[C@@H]1C=C2C(=O)O[C@@H]3CC[C@H](C1)[C@]23O
A) 99.14

Q) Proceed to C=C1NC(=O)c2nc(oc2C)C(=C)NC(=O)[C@H](C(C)(C)O)NC(=O)C(=C)NC(=O)c2nc(oc2C)/C(=C/C)NC(=O)[C@H]([C@@H](C)O)NC(=O)c2csc(n2)-c2ccc(C(N)=O)nc2-c2coc(n2)C(=C)NC1=O
A) 94.54

Kindly review the next molecule as well.
Q) Any idea what Tg_72h_%Growth_Rep2 was measured for COc1ccc2c3c([nH]c2c1)[C@H](C=C(C)C)N1C(=O)[C@@H]2CCCN2C(=O)[C@@H]1C3 ?
A) 98.57

====

- Test system: T. gondii RH strain (RH-Tub-eYFP) tachyzoites
- PROTOCOL_SUMMARY: microbe, parasite or virus in culture
- Type: cell-based, Toxoplasma gondii
- DETAILS: T. gondii RH, 72 h, library screen at 2 μg/mL, % growth, replicate 2
MEASURE_NAME: Tg_72h_%Growth_Rep2
Answer shape: numeric part, then the unit.

Answered cases to consult:
Q) Fill in: Tg_72h_%Growth_Rep2 of COC1CC(OC2C(C)OC(OC3C(C)=CCC4CC(CC5(CCC(C)C(C(C)C)O5)O4)OC(=O)C4C=C(C)C(O)C5OCC(=CC=CC3C)C45O)CC2OC)OC(C)C1O (stereo not drawn) is ___
A) 92.41%

Q) What would you report for CCCC(O)C(O)C1CC(OC)=CC(=O)O1 (stereo not drawn) ?
A) 92.55%

New cases:
Q) Which Tg_72h_%Growth_Rep2 is listed for CCCCCCCCCCCCCCCC(=O)NC1CCOC1=O (stereo not drawn) ?
A) 91.16%

Measured values drawn from paper PMC12396409 for this set.
